target or test system: Recombinant Human 17β-HSD1 (Homo sapiens, UniProt P14061)
Construct: made in house; host or cells: Sd9 (Sf9) insect cells, baculovirus (Bac to Bac Expression System)
Sequence (P14061 whole entry): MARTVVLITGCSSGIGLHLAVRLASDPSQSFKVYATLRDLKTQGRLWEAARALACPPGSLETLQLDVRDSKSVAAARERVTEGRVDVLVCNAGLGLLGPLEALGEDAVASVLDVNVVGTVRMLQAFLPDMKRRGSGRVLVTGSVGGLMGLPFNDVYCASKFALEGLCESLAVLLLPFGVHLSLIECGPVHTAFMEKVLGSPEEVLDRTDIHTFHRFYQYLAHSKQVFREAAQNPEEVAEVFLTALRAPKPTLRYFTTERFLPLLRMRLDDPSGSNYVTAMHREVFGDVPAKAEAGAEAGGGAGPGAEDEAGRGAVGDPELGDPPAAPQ
assay notes: Inhibition of recombinant human 17β-HSD1 (conversion of 3H-estrone to estradiol, HPLC)
Format: biochemical
experimental conditions: inhibitor at 1 μM; 30 nM estrone, 1 mM NADPH, 30 min at RT; read-out: 17β-HDS1 Inhibition % at 1 μM
Method: 17β-HSD1 Production and Isolation: Recombinant baculovirus was generated by the “Bac to Bac Expression System” (Invitrogen). Recombinant bacmid was transfected to Sd9 insect cells using “Cellfectin Reagent” (Invitrogen). […] Percent inhibition was calculated flowingly: % inhibition=100−% conversion
Listing of entries alongside the reported inhibition at 1 µM.
Numeric only. Scale: %

compound | experimental result
COc1ccc2c(c1)CCC1C2CC[C@@]2(C)C1[C@H](CCC(=O)Nc1ncc(C)s1)C[C@@H]2OP(=O)(O)O (stereo partly shown) [Compound 46] | 84

Cc1cnc(NC(=O)CC[C@@H]2CC(NCCCN(C)C)[C@@]3(C)CCC4c5ccc(O)cc5CCC4C23)s1 (stereo partly shown) [Compound 80a] yielded inhibition at 1 µM of 70

inhibition at 1 µM in this record for Cc1cnc(NC(=O)CC[C@@H]2C[C@H](NCc3ccco3)[C@@]3(C)CCC4c5ccc(O)cc5CCC4C23)s1 (stereo partly shown) [Compound 76] : 85

Entry COc1ccc2c(c1)CCC1C2CC[C@@]2(C)C1[C@H](CCC(=O)Nc1ncc(C)s1)C[C@@]2(O)C#N (stereo partly shown) [Compound 23] , inhibition at 1 µM reported as 82

====

target or test system: Recombinant Human 17β-HSD2 (Homo sapiens, UniProt P37059)
Construct: made in house; host or cells: Sd9 (Sf9) insect cells, baculovirus (Bac to Bac Expression System)
assay notes: Inhibition of recombinant human 17β-HSD2 (conversion of 3H-estradiol to estrone, HPLC)
Format: biochemical
experimental conditions: inhibitor at 1 μM; 50 nM estradiol, 1 mM NADH, 30 min at RT; read-out: 17β-HSD2 Inhibition % at 1 μM
Entries and their inhibition at 1 µM values follow.
Supply the numeric figure in %, leaving out any unit text.

Example results:
compound | observable | experimental result
Cc1cnc(NC(=O)CC[C@@H]2C[C@H](O)[C@@]3(C)CCC4c5cc(Br)c(O)c(Br)c5CCC4C23)s1 (some centres unmarked) | inhibition at 1 µM | 15
Cc1cnc(NC(=O)CC[C@@H]2CC(O)[C@@]3(C)CCC4c5ccccc5CCC4C23)s1 (some centres unmarked) | inhibition at 1 µM | 30
Cc1cnc(NC(=O)CC[C@@H]2C[C@H](O)[C@@]3(C)CCC4c5ccc(O)cc5CCC4C23)s1 (some centres unmarked) | inhibition at 1 µM | 48
Cc1cnc(NC(=O)CC[C@@H]2C[C@H](OC(=O)CCC(=O)O)[C@@]3(C)CCC4c5ccc(O)cc5CCC4C23)s1 (some centres unmarked) | inhibition at 1 µM | 1
CO[C@H]1C[C@@H](CCC(=O)Nc2ncc(C)s2)C2C3CCc4c(cc(Br)c(O)c4Br)C3CC[C@@]21C (some centres unmarked) | inhibition at 1 µM | 3
CC(=O)O[C@H]1C[C@@H](CCC(=O)Nc2ncc(C)s2)C2C3CCc4cc(O)ccc4C3CC[C@@]21C (some centres unmarked) | inhibition at 1 µM | 3
CC(=O)Oc1ccc2c(c1)CCC1C2CC[C@@]2(C)C1[C@H](CCC(=O)Nc1ncc(C)s1)C[C@@]2(O)C#N (some centres unmarked) | inhibition at 1 µM | 1
COc1ccc2c(c1)CCC1C2CC[C@@]2(C)C1[C@H](CCC(=O)Nc1ncc(C)s1)C[C@@H]2OP(=O)(O)O (some centres unmarked) | inhibition at 1 µM | 1

Bench note, Recombinant Human 17β-HSD2 (Homo sapiens, UniProt P37059): entry Cc1cnc(NC(=O)CC[C@@H]2CC(NCCCN(C)C)[C@@]3(C)CCC4c5ccc(O)cc5CCC4C23)s1 (some centres unmarked) [Compound 80a] , its inhibition at 1 µM = 1

Considering COc1ccc2c(c1)CCC1C2CC[C@@]2(C)C1[C@H](CCC(=O)Nc1ncc(C)s1)C[C@@]2(O)C#N (some centres unmarked) , its inhibition at 1 µM with Recombinant Human 17β-HSD2 (Homo sapiens, UniProt P37059) was recorded as 3

Response field inhibition at 1 µM (Recombinant Human 17β-HSD2 (Homo sapiens, UniProt P37059)) for item Cc1cnc(NC(=O)CC[C@@H]2C[C@@](O)(C#N)[C@@]3(C)CCC4c5ccc(O)cc5CCC4C23)s1 (some centres unmarked) : 6

Field inhibition at 1 µM (Recombinant Human 17β-HSD2 (Homo sapiens, UniProt P37059)), entry COCCNC1C[C@@H](CCC(=O)Nc2ncc(C)s2)C2C3CCc4cc(O)ccc4C3CC[C@]12C (some centres unmarked) : 1

Given the compound Cc1cnc(NC(=O)CC[C@@H]2CC(NC(C)C)[C@@]3(C)CCC4c5ccc(O)cc5CCC4C23)s1 (some centres unmarked) and test system Recombinant Human 17β-HSD2 (Homo sapiens, UniProt P37059), the measured inhibition at 1 µM is 11

Assay Recombinant Human 17β-HSD2 (Homo sapiens, UniProt P37059), sample CCCC[C@]1(O)C[C@@H](CCC(=O)Nc2ncc(C)s2)C2C3CCc4cc(O)ccc4C3CC[C@@]21C (some centres unmarked) , inhibition at 1 µM read: 6

====

target or test system: Recombinant Human 17β-HSD2 (Homo sapiens)
Construct: made in house; host or cells: Sd9 (Sf9) insect cells, baculovirus (Bac to Bac Expression System)
assay notes: Inhibition of recombinant human 17β-HSD2 (conversion of 3H-estradiol to estrone, HPLC)
Assay type: biochemical
experimental conditions: inhibitor at 1 μM; 50 nM estradiol, 1 mM NADH, 30 min at RT; read-out: 17β-HSD2 Inhibition % at 1 μM
We use 7% as the dividing line for inhibition at 1 µM: on or above the line is t, below is f.

compound | discrete label
CO[C@H]1C[C@@H](CCC(=O)Nc2ncc(C)s2)C2C3CCc4cc(O)ccc4C3CC[C@@]21C (stereo partly shown) | f
Cc1cnc(NC(=O)CC[C@@H]2C[C@H](O)[C@@]3(C)CCC4c5ccc(O)c(NC(C)C)c5CCC4C23)s1 (stereo partly shown) | t
Cc1cnc(NC(=O)CC[C@@H]2C[C@H](NCc3ccco3)[C@@]3(C)CCC4c5ccc(O)cc5CCC4C23)s1 (stereo partly shown) | f
COc1ccc2c(c1)CCC1C2CC[C@@]2(C)C1[C@H](CCC(=O)Nc1ncc(C)s1)C[C@@H]2O (stereo partly shown) | f
Cc1cnc(NC(=O)CC[C@@H]2C[C@H](NCC(C)C)[C@@]3(C)CCC4c5cc(C(C)(C)C)c(O)cc5CCC4C23)s1 (stereo partly shown) [Compound 75b] | t

Alright, here's another compound for you.
Q. API: above_or_equal(metric=inhibition at 1 µM, cutoff=7%) for item Cc1cnc(NC(=O)CC[C@@H]2C[C@H](NCC(C)C)[C@@]3(C)CCC4c5ccc(O)cc5CCC4C23)s1 (stereo partly shown)
A. f

====

# reported inhibition at 1 µM; entries follow
target or test system: Recombinant Human 17β-HSD2 (Homo sapiens, UniProt P37059)
Construct: made in house; host or cells: Sd9 (Sf9) insect cells, baculovirus (Bac to Bac Expression System)
Sequence (P37059 1-387): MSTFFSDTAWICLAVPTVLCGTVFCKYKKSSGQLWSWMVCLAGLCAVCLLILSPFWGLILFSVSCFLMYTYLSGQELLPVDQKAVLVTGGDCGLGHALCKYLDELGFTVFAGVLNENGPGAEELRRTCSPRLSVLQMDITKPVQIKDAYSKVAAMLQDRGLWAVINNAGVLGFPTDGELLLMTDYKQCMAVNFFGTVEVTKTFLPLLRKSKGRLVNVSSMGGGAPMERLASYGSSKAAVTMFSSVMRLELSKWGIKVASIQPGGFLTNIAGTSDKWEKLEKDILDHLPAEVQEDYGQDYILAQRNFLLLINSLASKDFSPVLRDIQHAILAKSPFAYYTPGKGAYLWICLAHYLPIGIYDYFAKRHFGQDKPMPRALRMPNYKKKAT
assay notes: Inhibition of recombinant human 17β-HSD2 (conversion of 3H-estradiol to estrone, HPLC)
Format: biochemical
experimental conditions: inhibitor at 1 μM; 50 nM estradiol, 1 mM NADH, 30 min at RT; read-out: 17β-HSD2 Inhibition % at 1 μM
Reply with just the number (in %).

molecule | observable | experimental result
Cc1cnc(NC(=O)CC[C@@H]2C[C@@](O)(CC#N)[C@@]3(C)CCC4c5ccc(O)cc5CCC4C23)s1 (stereo partly drawn) [Compound 24] | inhibition at 1 µM | 4
COCCNC1C[C@@H](CCC(=O)Nc2ncc(C)s2)C2C3CCc4cc(O)c(C(C)(C)C)cc4C3CC[C@]12C (stereo partly drawn) [Compound 79] | inhibition at 1 µM | 17
Cc1cnc(NC(=O)CC[C@@H]2C[C@H](O)[C@@]3(C)CCC4c5ccc(O)c(NC(C)CO)c5CCC4C23)s1 (stereo partly drawn) [Compound 72] | inhibition at 1 µM | 0
Cc1cnc(NC(=O)CC[C@@H]2CC(NCCN(C)C)[C@@]3(C)CCC4c5ccc(O)cc5CCC4C23)s1 (stereo partly drawn) [Compound 81] | inhibition at 1 µM | 2
Cc1cnc(NC(=O)CC[C@@H]2C[C@H](OP(=O)(O)O)[C@@]3(C)CCC4c5ccc(O)cc5CCC4C23)s1 (stereo partly drawn) [Compound 60] | inhibition at 1 µM | 0

Note: attention shifts to another entry.
Form: molecule = Cc1cnc(NC(=O)CC[C@@H]2CC(NCCO)[C@@]3(C)CCC4c5ccc(O)cc5CCC4C23)s1 (stereo partly drawn) [Compound 78] ; inhibition at 1 µM = 2

All values here come from patent US9850272B2.
